System: LS180
test.description: Tumor cell line growth inhibition, LS180
Assay type: cell-based
stated.conditions: Homo sapiens, 72 h; Colon, LS180, cultured for 3 days; maximum concentration 20 μmol/L
Description: IC50 was determined from the growth inhibition curves.
pIC50: −log10 of the molar value.
Reported pIC50 by item:
quantity.name: pIC50

>>> recorded_value("O=C1C(SCCO)=C(SCCO)C(=O)N1c1ccc(-c2ccccc2)cc1")
"< 4.70"
>>> recorded_value("CC(=O)Nc1ccc(N2C(=O)C(SCCO)=C(SCCO)C2=O)cc1")
"< 4.70"

----------
Sequence of the target: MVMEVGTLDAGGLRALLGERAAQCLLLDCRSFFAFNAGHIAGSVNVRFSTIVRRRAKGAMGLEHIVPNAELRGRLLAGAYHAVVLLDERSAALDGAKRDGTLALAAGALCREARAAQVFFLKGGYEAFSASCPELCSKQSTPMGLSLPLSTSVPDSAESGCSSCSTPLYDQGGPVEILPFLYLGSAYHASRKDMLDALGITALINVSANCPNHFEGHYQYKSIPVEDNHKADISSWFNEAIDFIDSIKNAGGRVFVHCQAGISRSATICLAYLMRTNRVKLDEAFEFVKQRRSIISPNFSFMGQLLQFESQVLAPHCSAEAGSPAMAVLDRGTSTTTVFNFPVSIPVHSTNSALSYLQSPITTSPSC
quantity.name: IC50 (µM)

>>> recorded_value("O=C1C(SCCO)=C(SCCO)C(=O)N1c1ccc(-c2ccccc2)cc1 [PM-20]")
75
